Please respond with reported %Inh for every item in the list.
tested on: SRPK1; conditions: concentration: 1 μM, replicates: in singlicate; n = 1;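 also: KINOMEscan kinase panel screen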
Give bare numbers, in %.

Below, 3 molecules whose answers are already recorded.
> print(dat)
                                   molecule  datavalue
1     CCCNC(=O)Nc1ccc(Oc2ncnc3ccn(C)c23)cc1         25
2  CCc1ccc(-c2ccc3c(c2)-c2nn(C)cc2S(=O)(=O)N3C)cc1          0
3  Cc1cccc(-c2nc(Nc3ccc4c(cnn4C)c3)c3ccccc3n2)n1 [GW876731]          0

Below are some molecules; for each one, tell me its %Inh.
1. COc1cccc(C2=C(N(C)c3ccccc3)C(=O)NC2=O)c1 [SB-334865]
2. CCn1c(-c2nonc2N)nc2ccccc21 [SB-693162/GW549034]
3. O=c1cc(N2CCOCC2)nc2n(Cc3ccc(F)c(Cl)c3)ccn12 [GSK2297099]
4. Nc1ncnc2c1ncn2-c1ccc(Cl)cc1 [AH2635]
5. COC(=O)c1c(-c2ccccc2)c2cc(C)ccc2c(=O)n1Cc1ccccc1
6. COc1ccc(Nc2nccc(N3CCC(NS(=O)(=O)c4ccc(NC(C)=O)cc4)C3)n2)cc1 (centres unmarked) [GSK1379729]

Data returned:
[0, 0, 0, 0, 0, 35]

Batch of 8 molecules: report %Inh for each.
1. CCC(=O)c1c(-c2ccccc2)c2cc(Cl)ccc2c(=O)n1Cc1cc(S(C)(=O)=O)n(CC(F)F)n1
2. COc1ccc(-n2cnc3c(N)ncnc32)cc1 [SKF-97236]
3. O=C(Nc1n[nH]c2nc(-c3ccccc3)c(Br)cc12)C1CC1 [SB-708998]
4. Nc1nc(N)c2nc(-c3ccccc3)[nH]c2n1 [SKF-12778]
5. COc1cccc(-n2cnc3c(N)ncnc32)c1 [SKF-97416]
6. COc1ccc(-c2cc3c(C)nc(N)nc3n([C@H]3CC[C@H](OCCO)CC3)c2=O)cn1
7. CCc1nc(-c2cccc(C)c2)c(-c2ccncc2)s1
8. COc1cc(Nc2nccc(N3CCC(NC(=O)C4COc5ccccc5O4)C3)n2)cc(OC)c1OC (centres unmarked) [GSK1379761]

Data returned:
0
28
36
37
2
0
0
65

* * *

test system: CSF1R; settings: concentration: 1 μM, replicates: in singlicate; n = 1
endpointName: %Inh (%)
Answers are plain numbers, in %.

Solved cases (5 shown):
> print(dat)
                                   compound  endpointname  datavalue
1  O=C(NCCNc1ccnc(Nc2ccc(F)cc2)n1)Nc1ccc2c(c1)OCO2          %Inh         18
2  COc1cc2ncn(-c3cc(OCCCc4ccccc4)c(C(N)=O)s3)c2cc1OC          %Inh          0
3  COc1cccc(C2=C(N(C)c3ccccc3)C(=O)NC2=O)c1          %Inh          4
4  Cc1ccc(-c2ccc3c(ccc4sc5c(c43)NC[C@@H](C)N=C5N(C)C)n2)cn1          %Inh          0
5     CCCNC(=O)Nc1ccc(Oc2ncnc3ccn(C)c23)cc1          %Inh         29

Could I get %Inh for every one of these entries?
1. COc1cc2nccc(Nc3ccc(OCc4ccc(NC(C)=O)cc4)cc3)c2cc1OC.Cl
2. OCCCNc1nccc(-c2c(-c3cccc(C(F)(F)F)c3)nn3cc(C(F)(F)F)ccc23)n1
3. CCc1nc(-c2cccc(C)c2)c(-c2ccncc2)s1
4. COC(=O)c1c(-c2ccccc2)c2cc(Br)ccc2c(=O)n1Cc1ccc(S(C)(=O)=O)cc1
5. CN1C(=O)C(Nc2cc(Cl)c(O)c(Cl)c2)=C(c2ccc(Cl)cc2)C1=O
6. Nc1nccc2scc(-c3ccc4c(c3)CCN4C(=O)Cc3ccccc3)c12
7. CN(C)c1cc(-c2ccc3c(N)n[nH]c3c2)nc(N)n1
8. COc1ccc(Nc2nccc(N3CCC(NS(=O)(=O)c4ccc(NC(C)=O)cc4)C3)n2)cc1 (centres unmarked)

Data returned:
73
0
0
16
0
78
2
1

Data request: I'm curious: which %Inh was measured for Nc1ncnc2c1ncn2-c1ccc(Cl)cc1 tested on CSF1R?
Data returned: 11

* * *

Assignment: determine reported %Inh for the given molecules.
test system: RIPK1; settings: concentration: 1 μM, replicates: in singlicate; n = 1
Give bare numbers, in %.

A selection of reference data follows.
> print(dat)
                                   molecule  datavalue
1  CN1C(=O)C(Nc2cc(Cl)c(O)c(Cl)c2)=C(c2ccc(Cl)cc2)C1=O          0
2             COc1cccc(-n2cnc3c(N)ncnc32)c1          0
3  Cc1c(Cn2c(C)nn3c(=O)cc(N4CCO[C@H](C)C4)nc23)cccc1C(F)(F)F          1

Could you report %Inh for every entry in the following list?
1. Cc1nnc(-c2ccc3ncn(-c4ccc(S(C)=O)cc4)c3c2)o1 (centres unmarked)
2. CN1C(=O)C(Nc2ccccc2)=C(c2ccccc2)C1=O
3. CCC(=O)c1c(-c2ccccc2)c2cc(Cl)ccc2c(=O)n1Cc1cc(S(C)(=O)=O)n(CCC(C)(C)O)n1

Data returned:
[4, 0, 20]

Record %Inh per entry; entries follow.
1. COc1ccc(Nc2nccc(N3CCC(NS(=O)(=O)c4ccc(NC(C)=O)cc4)C3)n2)cc1 (centres unmarked)
2. O=C(NCCNc1ccnc(Nc2ccc(F)cc2)n1)Nc1ccc2c(c1)OCO2

Data returned:
28
25

* * *

What %Inh was measured for each of the following?
tested on: EIF2AK1; conditions: concentration: 1 μM, replicates: in singlicate; n = 1
Numbers only, in %.

Below: 10 molecules and their reported %Inh.
> print(dat)
                                    molecule  studysystem  datavalue
 1  Cc1cc(Nc2nc(-c3cccc(C)n3)nc3ccccc23)ccn1      EIF2AK1          0
 2  COC(=O)c1c(-c2ccccc2)c2cc(C)ccc2c(=O)n1Cc1ccccc1      EIF2AK1          0
 3  Cc1nnc(-c2ccc(C)c(-c3ccc(C(=O)O)cc3)c2)o1      EIF2AK1          0
 4      CN1C(=O)C(Nc2ccccc2)=C(c2ccccc2)C1=O      EIF2AK1          0
 5           Nc1nc(N)c2nc(-c3ccccc3)[nH]c2n1      EIF2AK1         21
 6     Nc1nc(-c2ccccc2F)c(-c2ccnc3ccccc23)s1      EIF2AK1          0
 7  COc1cc(Nc2ccnc3ccc(C(F)(F)F)cc23)cc(OC)c1OC      EIF2AK1          2
 8  FC(F)(F)c1ccc(-c2ncn(CCCN3CCOCC3)c2-c2ccncc2)cc1      EIF2AK1         10
 9  CCC(=O)c1c(-c2ccccc2)c2cc(Cl)ccc2c(=O)n1Cc1ccc(C(=O)O)cc1      EIF2AK1          0
10  COc1cc(Nc2nccc(N3CCC(NC(=O)C4COc5ccccc5O4)C3)n2)cc(OC)c1OC (stereo not drawn)      EIF2AK1          0

Dear colleague, could you send me %Inh for each of the items below? Thanks.
1. CCC(=O)c1c(-c2ccccc2)c2cc(Cl)ccc2c(=O)n1Cc1cc(S(C)(=O)=O)n(CCC(C)(C)O)n1
2. O=C1NC(=O)C(c2ccccc2)=C1Nc1cccc(O)c1

Data returned:
1: 19; 2: 0

* * *

I'd appreciate it if you could supply %Inh values for the items below.
test system: MAP4K2; settings: concentration: 1 μM, replicates: in singlicate; n = 1
Numbers only, in %.

Consider the reported %Inh for these compounds:
> print(dat)
                                   compound  datavalue
1  COc1cccc(C2=C(Nc3cccc(C(=O)O)c3)C(=O)NC2=O)c1          0
2  Cl.NS(=O)(=O)c1cccc(Nc2cc(-c3ccc(F)cc3)n[nH]2)c1          0
3  O=C(Nc1ccc2c(c1)OCO2)NC1CCN(c2ccnc(NCc3ccc(F)cc3)n2)CC1          0

// for each compound below, give its %Inh
1. Cc1cccc(-c2nc(Nc3ccc4c(cnn4C)c3)c3ccccc3n2)n1
2. O=C(Nc1n[nH]c2nc(-c3ccccc3)c(Cl)cc12)C1CC1
3. COc1cc(OC)cc(-c2cc3cnc(N)nc3nc2NC(=O)NC(C)(C)C)c1
4. Nc1n[nH]c2ncc(-c3ccccc3)cc12
5. Cc1c(Cn2c(C)nn3c(=O)cc(N4CCO[C@H](C)C4)nc23)cccc1C(F)(F)F
6. COc1cc2ncn(-c3cc(OCc4ccncc4)c(C(N)=O)s3)c2cc1OC

Data returned:
1. 0
2. 0
3. 0
4. 0
5. 0
6. 0

Hi team, please reply with %Inh for each item in this list.
1. COc1ccc(-c2coc3ccc(-c4nnc(SCc5cccc(C#N)c5)o4)cc23)cc1
2. COc1ccc(-c2cc3c(C)nc(N)nc3n([C@H]3CC[C@H](O)CC3)c2=O)cn1
3. COc1cccc(-n2cnc3c(N)ncnc32)c1

Data returned:
1. 0
2. 0
3. 33

I would be grateful if you could provide %Inh for each of the following entries.
1. COc1cc2ncn(-c3cc(OCc4ccc(S(C)(=O)=O)cc4)c(C(N)=O)s3)c2cc1OC
2. O=C1NC(=O)C(c2ccccc2)=C1Nc1cccc(O)c1
3. Cc1ccc(-c2ccc3c(ccc4sc5c(c43)NC[C@@H](C)N=C5N(C)C)n2)cn1
4. CCn1c(-c2nonc2N)nc2ccccc21
5. COc1cc2ncn(-c3cc(OCc4ccncc4Br)c(C(N)=O)s3)c2cc1OC
6. Cc1cccc(-c2cc(-c3c[nH]nc3-c3ccccn3)ccn2)c1

Data returned:
[26, 26, 0, 4, 11, 0]

Count: 5. Required value per item: %Inh.
1. COC(=O)c1c(-c2ccccc2)c2cc(Br)ccc2c(=O)n1Cc1ccc(S(C)(=O)=O)cc1
2. CN(C)c1cc(-c2ccc3c(N)n[nH]c3c2)nc(N)n1
3. CCc1nc(-c2cccc(C)c2)c(-c2ccncc2)s1
4. C[C@@H]1CC[C@H](C(=O)NC2CCCCC2)CN1c1cc(-c2ccc3c(N)n[nH]c3c2)nc(N)n1
5. Cn1c(=O)c(F)c(Nc2ccc(I)cc2F)c2c(=O)n(OC[C@H](O)CO)cnc21

Data returned:
0
0
0
0
0

// for each compound below, give its %Inh
1. COc1cc(Nc2ccnc3ccc(C(F)(F)F)cc23)cc(OC)c1OC
2. Cc1ccccc1COc1cc(-n2cnc3cc(Cl)ccc32)sc1C(N)=O
3. COc1ccc(-c2cc3c(C)nc(N)nc3n([C@H]3CC[C@H](OCCO)CC3)c2=O)cn1

Data returned:
[1, 0, 0]

// input: 7 compounds below; output: %Inh for each
1. CCc1ccc(-c2ccc3c(c2)-c2nn(C)cc2S(=O)(=O)N3C)cc1
2. Cl.c1ccc(Cn2cnc3cc(Nc4ncnc5ccccc45)ccc32)cc1
3. COc1cc2ncn(-c3cc(OCCCc4ccccc4)c(C(N)=O)s3)c2cc1OC
4. CCC(=O)c1c(-c2ccccc2)c2cc(Cl)ccc2c(=O)n1Cc1cc(S(C)(=O)=O)n(CCC(C)(C)O)n1
5. COc1ccc(CNC(=O)NC2CCN(c3ccnc(Nc4ccc(F)cc4)n3)C2)cc1 (stereo not drawn)
6. O=C(NCc1cccs1)c1cc(C(=O)c2c(Cl)cccc2Cl)c[nH]1
7. CCC(=O)c1c(-c2ccccc2)c2cc(Cl)ccc2c(=O)n1Cc1cc(S(C)(=O)=O)n(CC(F)F)n1

Data returned:
1. 0
2. 0
3. 0
4. 0
5. 0
6. 0
7. 0
